tested on: rice; assay: Low temperature assay on rice seedlings; assay type: in vivo; conditions: 0.001 mg/l, 4 °C, 9 days
Observed property: Height (cm)
Give the quantity in cm, number only.

In: Tell me the measured Height of CC(C)[C@H](C)[C@@H](O)[C@H](O)[C@@H](C)[C@H]1CCC2C3COC(=O)C4C[C@H](O)[C@H](O)C[C@]4(C)C3CC[C@@]21C (stereo partly drawn) , please.
Out: 7.5

In: Tell me the measured Height of C=C(C(C)C)[C@@H](O)[C@H](O)[C@@H](C)[C@H]1CCC2C3COC(=O)C4C[C@H](O)[C@H](O)C[C@]4(C)C3CC[C@@]21C (stereo partly drawn) , please.
Out: 7.4

In: Tell me the measured Height of CC(C)[C@H](C)[C@@H](O)[C@H](O)[C@@H](C)[C@H]1CCC2C3CC(=O)C4C[C@H](O)CC[C@]4(C)C3CC[C@@]21C (stereo partly drawn) , please.
Out: 7.4

In: Tell me the measured Height of CC(C)C[C@@H](O)[C@H](O)[C@@H](C)[C@H]1CCC2C3CC(=O)C4C[C@H](O)[C@H](O)C[C@]4(C)C3CC[C@@]21C (stereo partly drawn) , please.
Out: 7.5

In: Tell me the measured Height of CC[C@@H](C(C)C)[C@@H](O)[C@H](O)[C@@H](C)[C@H]1CCC2C3COC(=O)C4C[C@H](O)[C@H](O)C[C@]4(C)C3CC[C@@]21C (stereo partly drawn) , please.
Out: 7.5

In: Tell me the measured Height of CC(C)(O)CC[C@@H](O)[C@](C)(O)[C@H]1CC[C@@]2(O)[C@@H]3CC(=O)[C@@H]4C[C@@H](O)[C@@H](O)C[C@]4(C)[C@H]3CC[C@]12C , please.
Out: 7.5

----------
I'd appreciate it if you could supply Area of leaf values for the items below.
tested on: rice; assay: Low temperature assay on rice seedlings; assay type: in vivo; conditions: 0.0001 mg/l, 4 °C, 6 days
Give the quantity in cm^2, number only.

In: Which Area of leaf is reported with rice for this entry: CC(C)(O)CC[C@@H](O)[C@](C)(O)[C@H]1CC[C@@]2(O)[C@@H]3CC(=O)[C@@H]4C[C@@H](O)[C@@H](O)C[C@]4(C)[C@H]3CC[C@]12C [BR6] ?
Out: 12.2

In: Which Area of leaf is reported with rice for this entry: CC[C@@H](C(C)C)[C@@H](O)[C@H](O)[C@@H](C)[C@H]1CCC2C3COC(=O)C4C[C@H](O)[C@H](O)C[C@]4(C)C3CC[C@@]21C (stereo partly drawn) [BR2] ?
Out: 11.7

In: Which Area of leaf is reported with rice for this entry: C=C(C(C)C)[C@@H](O)[C@H](O)[C@@H](C)[C@H]1CCC2C3COC(=O)C4C[C@H](O)[C@H](O)C[C@]4(C)C3CC[C@@]21C (stereo partly drawn) [BR3] ?
Out: 11.5

In: Which Area of leaf is reported with rice for this entry: CC(C)[C@H](C)[C@@H](O)[C@H](O)[C@@H](C)[C@H]1CCC2C3COC(=O)C4C[C@H](O)[C@H](O)C[C@]4(C)C3CC[C@@]21C (stereo partly drawn) [BR1] ?
Out: 12.2

In: Which Area of leaf is reported with rice for this entry: CC(C)[C@H](C)[C@@H](O)[C@H](O)[C@@H](C)[C@H]1CCC2C3CC(=O)C4C[C@H](O)CC[C@]4(C)C3CC[C@@]21C (stereo partly drawn) [BR4] ?
Out: 11.5

In: Which Area of leaf is reported with rice for this entry: CC(C)C[C@@H](O)[C@H](O)[C@@H](C)[C@H]1CCC2C3CC(=O)C4C[C@H](O)[C@H](O)C[C@]4(C)C3CC[C@@]21C (stereo partly drawn) [BR5] ?
Out: 11.7
